System: Human papillomavirus type 1a protein E7 (residues 44-93)
Experiment: HPV1a E7 fragment binders on microarrays, primary screen, biochemical, small-molecule microarray, residues 44-93, 635 nm fluorescence (AID 1108);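 further: E7 fragment applied at 1 µg/mL in TBST for 1 h at 4 C; score combines spot fluorescence with its signal to noise ratio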
Settings: small-molecule microarray binding, fluorescence 635 nm; higher = more signal
Field: composite z-score. Provide a value for each of the compounds that follow.
// return just the number, without any unit appended

Noted for CC(C)C[C@@H]1NC(=O)[C@@H]2C[C@H](C(=O)NCCCCCN)[C@H](c3cccc(OCCO)c3)N2C1=O : its composite z-score reads 0.828

Noted for O=C1C2C=CC(C(O)C(c3ccccc3)c3ccccc3)N(n3cnnc3)C2C(=O)N1Cc1ccccc1 (stereo not given) : its composite z-score reads 1.24

Noted for Cc1ccc(S[C@]2(C(=O)NC3CC3)CC(=O)N(C3Cc4ccccc4C3)[C@@H]2c2ccc(CO)cc2)cc1 : its composite z-score reads 1.27

Noted for C=CCNC(=O)[C@H]1[C@@H]2C(=O)O[C@@H](c3ccccc3)[C@@H](c3ccccc3)N2[C@@H](c2ccc(OCCO)cc2)[C@]12C(=O)Nc1ccc(C#CC3=CCCCC3)cc12 : its composite z-score reads 1.4

Noted for COc1ccc(C(O)C2C=CC3C(=O)NC(=O)C3N2Nc2ccccn2)c2ccccc12 (stereo not given) : its composite z-score reads -0.266

Noted for O=C1NCC(=O)N2[C@@H]1C[C@@H](C(=O)O)[C@H]2c1cccc(OCCO)c1 : its composite z-score reads 1.57

Noted for CCCCCN1CC=CC23O[C@@H]4/C=C\CCCOC(=O)C4[C@H]2C(=O)N(C(CO)C(C)C)[C@@H]3C1=O (stereo not given in full) : its composite z-score reads -0.453

Noted for COCCOC(=O)N1C(=O)[C@@]2(c3cc(C#CC4=CCCCC4)ccc31)[C@H](C(=O)N1CCc3cc(OC)c(OC)cc3C1)[C@H]1C(=O)O[C@H](c3ccccc3)[C@H](c3ccccc3)N1[C@@H]2c1ccc(OCCO)cc1 : its composite z-score reads 1.07

Noted for C=C(CCCC)C(=O)CC[C@H](OC(C)=O)c1cccc(OCCO)c1 : its composite z-score reads -0.252

Noted for C=CCNC(=O)[C@H]1[C@@H]2C(=O)O[C@@H](c3ccccc3)[C@@H](c3ccccc3)N2[C@@H](c2ccc(OCCO)cc2)[C@]12C(=O)N(C(=O)OCCOC)c1ccccc12 : its composite z-score reads 0.379

Noted for CC(C)(C)C(=O)N[C@@H](c1ccc(Cl)cc1)[C@]1(C)C[C@H]1C1CCCCC1 : its composite z-score reads 1.19

Noted for [N-]=[N+]=NCc1ccccc1C[C@]1(C(=O)O)N=C(c2ccc(OCCCO)cc2)O[C@H]1c1ccccc1N=[N+]=[N-] : its composite z-score reads 1.18

Noted for O=C1OCCC/C=C\[C@H]2OC34C=CCN(Cc5ccccc5)C(=O)[C@H]3N(CCCCCCO)C(=O)[C@@H]4C12 (stereo not given in full) : its composite z-score reads 0.103

Noted for O=C1O[C@@H](c2ccccc2)[C@@H](c2ccccc2)N2[C@@H](c3ccc(OCCO)cc3)[C@]3(C(=O)Nc4ccccc43)[C@@H](C(=O)NC[C@H](O)c3ccccc3)[C@H]12 : its composite z-score reads 1.28

Noted for Cc1ccc(C(C)CC(O)C2C=CC3C(=O)N(C)C(=O)C3N2NC(=O)OC(C)(C)C)o1 (stereo not given) : its composite z-score reads 0.598

---

Target: Fibroblast growth factor 2 (Homo sapiens)
Assay: FGF2 binders on small-molecule microarrays, primary screen, biochemical, small-molecule microarray, 635/667 nm fluorescence (AID 1133)
Conditions: small-molecule microarray binding, FGF2, fluorescence 635/667; higher = more signal
Field: composite z-score. Provide a value for each of the molecules that follow.
// return just the number, without any unit appended

Value (composite z-score, Fibroblast growth factor 2 (Homo sapiens)) for record COC(=O)C=C(CC(O)c1cccc(Cl)c1)OC (stereo not drawn) = -0.0579

Value (composite z-score, Fibroblast growth factor 2 (Homo sapiens)) for record CN1C2C=C(CCCO)C(C3C(=O)N(C(N)=O)C(=O)C32)C1c1ccc(CN2CCCC2)cc1 (stereo not drawn) = 0.0692

Value (composite z-score, Fibroblast growth factor 2 (Homo sapiens)) for record COc1ccc([Si](C)(C)[C@H]2[C@H](CC(=O)N3Cc4ccccc4C[C@H]3CO)O[C@@]3(C(=O)N(Cc4ccc(N5CCC5=O)cc4)c4ccccc43)[C@@H]2C)cc1 = 1.32

Value (composite z-score, Fibroblast growth factor 2 (Homo sapiens)) for record COc1cc2c(cc1OC)CN(C(=O)[C@@H]1[C@H]3C(=O)O[C@H](c4ccccc4)[C@H](c4ccccc4)N3[C@H](c3ccc(O)cc3)[C@@]13C(=O)Nc1ccc(C#CC4(O)CCCCCC4)cc13)CC2 = 1.35

Value (composite z-score, Fibroblast growth factor 2 (Homo sapiens)) for record C=CC[C@@]1(C(N)=O)N=C(c2ccc(OCCCO)cc2)O[C@@H]1c1ccccc1CN=[N+]=[N-] = 0.107

Value (composite z-score, Fibroblast growth factor 2 (Homo sapiens)) for record COC(=O)[C@@]1(Cc2ccc(F)cc2)[C@@H]2[C@@H](CC(=O)[C@H]2CC(=O)C(=O)N(C)C)CN1C(=O)c1ccccc1 = -0.213

Value (composite z-score, Fibroblast growth factor 2 (Homo sapiens)) for record CC(C)(C)OC(=O)CC[C@]12N=C(c3ccc(OCCCO)cc3)O[C@H]1c1ccccc1N(CCS(=O)(=O)c1ccccc1)C2=O = 0.596

Value (composite z-score, Fibroblast growth factor 2 (Homo sapiens)) for record O=C1OCCC/C=C\[C@H]2OC34C=CCN(CCN5CCOCC5)C(=O)[C@H]3N(CCCO)C(=O)[C@@H]4C12 (stereo partly drawn) = -0.506

---

Test: small-molecule binders of probe aNOTCH3, primary screen, biochemical, small-molecule microarray, 635/667 nm fluorescence (AID 1120);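 further: probe is a biotin-tagged antibody raised against NOTCH3 rather than NOTCH3 protein; score merges spot fluorescence near 667 nm with spot signal to noise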
Conditions: higher = more signal
Quick rule: composite z-score of at least -0.1 means Met, below that means Not met.

## Input hey, is composite z-score for this one >= -0.1? O=C(O)[C@@]1(CCS(=O)(=O)c2ccccc2)COC(c2ccc(OCCCO)cc2)=N1
## Output Not met

## Input hey, is composite z-score for this one >= -0.1? COc1ccc(COC2OC[C@]3(C)[C@H]4C5=C(CN3C(=O)OC(C)(C)C)[C@H](C)C(CO)C(CO)C5CC[C@@H]24)cc1 (stereo partly specified)
## Output Met

## Input hey, is composite z-score for this one >= -0.1? O=C1OCCC/C=C\[C@H]2OC34C=CCN(c5ccc6ccccc6c5)C(=O)[C@H]3N(CCCCCCO)C(=O)[C@@H]4C12 (stereo partly specified)
## Output Not met

## Input hey, is composite z-score for this one >= -0.1? C=CCOC(=O)[C@@H]1[C@H]2C(=O)O[C@H](c3ccccc3)[C@H](c3ccccc3)N2[C@H](c2ccc(OCCOC(=O)[C@@H]3C[C@@H]4C(=O)N5CCC[C@H]5C(=O)N4[C@@H]3c3ccc(O)cc3)cc2)[C@@]12C(=O)Nc1ccc(I)cc12
## Output Met

## Input hey, is composite z-score for this one >= -0.1? CN(C)C(=O)[C@@]1(Cc2ccccc2)N=C(c2ccc(OCCCO)cc2)O[C@H]1c1ccccc1N=[N+]=[N-]
## Output Met

## Input hey, is composite z-score for this one >= -0.1? COc1ccc([Si](C)(C)[C@H]2[C@H](CC(=O)N3CCC[C@H]3CO)O[C@@]3(C(=O)N(Cc4cccc(N5C(=O)c6cccc7cccc5c67)c4)c4ccccc43)[C@@H]2C)cc1
## Output Met

---

Biological target: Alpha-bungarotoxin (Bungarus multicinctus)
Experiment: alpha-bungarotoxin binders on microarray, profiling panel, artefact control for SMM control protein annotation, biochemical, small-molecule microarray, Alexa647 label, 635/667 nm fluorescence (AID 1117)
Details: alpha-BTX-A647 binding fluorescence, higher = more signal
Field: composite z-score. Provide a value for each of the molecules that follow.
// return just the number, without any unit appended

Noted for COCCOC(=O)N1C(=O)[C@@]2(c3ccccc31)[C@H](c1ccccc1OCCO)N1[C@H](c3ccccc3)[C@H](c3ccccc3)OC(=O)[C@H]1[C@@H]2C(=O)Nc1nc2ccccc2s1 : its composite z-score reads 1.74

Noted for C[C@@H]1ON(c2cccc(C(=O)OC(C)(C)C)c2)[C@H](c2ccc(Br)cc2)[C@H]1C(=O)N1C(=O)OC[C@H]1Cc1ccccc1 : its composite z-score reads 0.518

Noted for CC(C)(C)C(=O)N[C@@H](c1ccc(Cl)cc1)[C@]1(C)C[C@H]1C1CCCCC1 : its composite z-score reads 2.02

Noted for CC(C)(C)OC(=O)CC[C@@]1(C(=O)NCCN2CCOCC2)N=C(c2ccc(OCCCO)cc2)O[C@@H]1c1ccccc1N=[N+]=[N-] : its composite z-score reads 0.783

Noted for COc1cc2c(cc1OC)CN(C(=O)[C@H]1[C@@H]3C(=O)O[C@@H](c4ccccc4)[C@@H](c4ccccc4)N3[C@@H](c3ccc(O)cc3)[C@]13C(=O)Nc1ccc(C#CCNC(N)=O)cc13)CC2 : its composite z-score reads -0.0782

Noted for C=CCOC(=O)[C@H]1[C@@H]2C(=O)O[C@@H](c3ccccc3)[C@@H](c3ccccc3)N2[C@@H](c2ccc(OCCOC(=O)[C@H]3C[C@H]4C(=O)N[C@@H](CC(C)C)C(=O)N4[C@H]3c3ccc(O)cc3)cc2)[C@]12C(=O)Nc1ccc(I)cc12 : its composite z-score reads 1.82

Noted for C=CCOC(=O)[C@H]1[C@@H]2C(=O)O[C@@H](c3ccccc3)[C@@H](c3ccccc3)N2[C@@H](c2ccc(OCCOC(=O)[C@@H]3C[C@@H]4C(=O)N[C@@H](CCCC[N+](C)(C)C)C(=O)N4[C@@H]3c3ccc(O)cc3)cc2)[C@]12C(=O)Nc1ccccc12 : its composite z-score reads 0.428

Noted for COc1ccc(CCNC(=O)[C@@H]2c3ccccc3C(=O)N(C3Cc4ccccc4C3)[C@H]2c2ccc(CO)cc2)cc1 : its composite z-score reads 0.134

Noted for CCOC(=O)C=Cc1cc([N+](=O)[O-])ccc1O : its composite z-score reads -0.234

Noted for C=CCC(OC(C)=O)[C@@H]1[C@@H](N(Cc2ccc(-c3cccc(C(F)(F)F)c3)o2)C(=O)Cc2ccc(F)cc2)c2cc(OCCCO)ccc2N1C(=O)Cc1ccc(OC)cc1 (some centres not stated) : its composite z-score reads -0.167

Noted for COC(=O)C(CC#Cc1ccc2c(c1)[C@]1(C(=O)N2)[C@H](c2ccc(O)cc2)N2[C@H](c3ccccc3)[C@H](c3ccccc3)OC(=O)[C@H]2[C@@H]1C(=O)Nc1nc2ccccc2s1)C(=O)OC : its composite z-score reads 1.62

Noted for C=CCN(Cc1ccccc1)C(=O)C(c1cccs1)N(CCOCCO)C(=O)/C=C\C(=O)O (configuration not stated) : its composite z-score reads -1.82
